System: MS2 coat protein
Assay: apparent KD of MS2 coat protein; designed switch direction (-1 OFF switch, 1 ON switch): -1; higher = weaker reporter binding
Details: input ligand: none
property: apparent KD of MS2 coat protein (nM)
I only need the number, in nM, no unit after it.

Query: apparent KD of MS2 coat protein; subject: AUAAAUCAUGUAGGAUAUGCGUGGCGAAGCUAUGCAGAAGGACAUGAGGAUCACCCAUGUGCUUGCGUCCGCGUACGGAUGCAA [Mat - Exclusion NG 1 - Mod of JL - D69] (Eterna round: R96, puzzle: Exclusion NG 1)
231

Next:
Query: apparent KD of MS2 coat protein; subject: ACAUGUAAUGCAGGAUAUUUUACACAUGAGGAUCACCCAUGUGACCAGAGGAAUUGCUAUGAGUAGAAGAAGGGUAUGUACAUG [Ex NG2 #56] (Eterna round: R96, puzzle: Exclusion NG 2)
64.4

###

System: K4 kissing-loop RNA reporter;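 further: bound reporter read as fluorescence of individual clusters on recovered sequencing chips by microscopy, with normalized cluster intensities fitted with a binding model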
Assay: apparent KD of K4 kissing-loop reporter; higher = weaker reporter binding
Details: Eterna round: R107; input ligand: none
property: apparent KD of K4 kissing-loop reporter
Your reply should be a number followed by the unit it is expressed in.

Query: apparent KD of K4 kissing-loop reporter; subject: GGCAGUGAUGUUGCCAGUGGCAGAUGUGAAGGAGCGCGGUGAGACGCAGGUAGGUCGCACAUUGAAAUUGCUGUCACUAAAAUGC [#02 K4 Arginine A Exclusion]
273 nM

Next sequence up: CCGAUACAUUAUUCUACGGCCGAGAGUGAUACCAGCCGUAUUUGUGGCCCUUGGCAGCGCAGAUGCAGUGAUGUUGCAUACUUGU [Same State Theophylline A GF 20]
78.1 nM

Next sequence up: GCAUGGGUGCUUGCACAAGUGAUGUUUGGGCGAGGACCGGUACGGCCGCCACUCGUACGUUUAGUUAAAAGACAUCAUGCGAGUC [theeternabot_exclusion_KL_Trp_A_11]
356 nM

Next sequence up: GAAUUAUGUAGAAGGAGCGUCAGAAGGUAUAGGUGCGAGUGAUGUUUGGACCUGUUAAUUUGACAGGUAGGUCGCUACAGAAGGA [KL-SSArg B20 #analogue]
448 nM

Next sequence up: AAAUAGAUCAGUCACCCAGUGAUGUUGGAAGGAGCGUGCGAAAGCACAGGUAGGUCGCCAAAAUAAAAGUGGCUGAUCAAAAUAA [#SwitchBubble 5 #K4Early]
389 nM

###

# apparent KD of MS2 coat protein values compiled below
System: MS2 coat protein
Experiment: apparent KD of MS2 coat protein; higher = weaker reporter binding
Conditions: Eterna round: R107; input ligand: tryptophan 2.4 mM
Your reply should be a number followed by the unit it is expressed in.

Some solved cases for reference:
# value lookup — system MS2 coat protein, readout apparent KD of MS2 coat protein, item AGUUGACGAAAGUCAGCAACAUGAUCCGAAGGAGCGGGCGAAAGCCCAGGUAGGUCGCGGACAUGAGGAUCACCCAUGUCUCCUU [MAT - Exclusion Arginine A - Mod of Eli - D12]
70.7 nM

Next sequence up: AUAACAUGAGGAUCACCCAUGUAAGCAGAUACCAGCUAGGAAACUAGCCCUUGGCAGCUGCAUAGUGAUCCAUAUAUCUGCUAAU [(M1)-(M2)-(T1)-(T2)-(M)'-(T)'_Design8]
59.2 nM

Next sequence up: GGCGUCGGGCGAAGGAGCGUGAAGACAUGAGGAUCACCCAUGUAGAGGCCCGGACAGGGUUCGCAGGUAGGUCGCGCGCGGUGCC [#1 Same State - Arginine B Attempt #7 (HarryS)]
16.9 nM

Continuing:
# value lookup — system MS2 coat protein, readout apparent KD of MS2 coat protein, item AGCACAUGAGGAUCACCCAUGUGAGGUGAUACCAGUGAGAAGAAGCACCCUUGGCAGCACUUGGGUACAUGAGGAUCACCCAUGU [Exclusion Theophylline A GF9]
54.7 nM

Next sequence up: CCCAGUCAUAGCAAAGCAAAUAUACUCGAAGGAGCGUCAUAGUAGGCAGGUAGGUCGCGAGACAUGAGGAUCACCCAUGUAGAGA [ooomullin]
41.3 nM

Next sequence up: UGUAUGUGAUCUGAUACCAGCUAAUAAGCUUGAGGAUCACCCAAGUGGAGCGGAAACGCAAGCCCUUGGCAGCAGAUCGCAUACU [Denovo 4 #StaticStem #AlternativeMS2]
98.9 nM

Next sequence up: UGACAUUGCUCAGAUACCAGACAUGAGGAUCACCCAUGUACCAAGAAAACGUACAUAAAUGUCCCUUGGCAGCUGAGCAAUGUCU [TheoBX 10 #MS2Left #Theo2]
531 nM

Next sequence up: AUUCAUGAAAACAUGACAUAGGGAUCACUCCGAGGACCGGUACGGCCGCCACUCGCGAGGAGGCACAUGAGGAUCACCCAUGUUA [SS Tryp A #3]
108 nM

Next sequence up: "CCGGCCAGGGCGGCCGCCACUGAACGUGGAAGAAAGAAAACAUGAGGAUCACCCAUGUAAAUCCUCAGGACCGGGCCAGGGCCGG"
17.8 nM

Next sequence up: UCACAUGAGGAUCACCCAUGUACAACUGAAGGAGCGAGACAAAACUCAGGUAGGUCGCAGAAUAAACAAUAGCAUACGACAUGGG [Exclusion Arginine A GF 19]
27.7 nM

Next sequence up: AAACAUUGCUCAGAUACCAGACAUGAGGAUCACCCAUGUACCGAGGUACCCGAAAGGAAUGUCCCUUGGCAGCUGAGCAAUGAAA [MAT - Exclusion Theophlline B - Mod of Eli - D22]
11.4 nM
